Record: compiled IC50 on ROCK2 (Homo sapiens) from multiple reports.

Some molecules with known IC50 results, for comparison:
{"columns": ["molecule", "IC50"],
 "data": [
  ["Clc1c(Nc2nnc(-c3ccnc(-c4ncco4)c3)o2)ccc2[nH]ncc12", "< 300 nM"],
  ["Cn1c(C(=O)Nc2cnccc2F)cc2c1CN(c1nccc(Nc3ccc(-c4cn[nH]c4)cc3)n1)CC2", "50 to 500 nM"],
  ["CC(C)NC(=O)c1cccc(CN2C(=O)N(c3ccc(-c4cn[nH]c4)cc3)CC23CCOCC3)c1", "3 to 30 nM"]
]}

// lookup IC50 | system=ROCK2 (Homo sapiens) | key= COc1cc(N2CCC3(CCN(C(=O)c4ccc(-c5ccccc5)o4)CC3)C2=O)ccc1-c1cn[nH]c1
851 nM
